target: human M1 receptor (hCHRM1) (Homo sapiens, UniProt P11229); construct: expressed in transfected cells; host or cells: CHO-K1; assay: Measurement of M1 receptor positive allosteric modulator (M1PAM) activity, calcium fluorescence (FLIPRtetra) in CHO-K1 cells in the presence of acetylcholine at EC20; format: cell-based; details: test compound 10 μM, in the presence of acetylcholine at EC20 (final 0.6 nM), CHO-K1 cells expressing hCHRM1
observation type: activity (%) at 10 μM

{"columns": ["compound", "measured on", "activity (%) at 10 μM"],
 "data": [
  ["N#Cc1cccc(F)c1Oc1cccc2c1C(=O)N(Cc1ccc(-n3cccn3)cc1)C2", "human M1 receptor (hCHRM1) (Homo sapiens, UniProt P11229)", 101],
  ["Cc1cc(-c2ccc(CN3Cc4ccnc(OCC5CCOC5)c4C3=O)cc2)ccn1.Cl (centres unmarked)", "human M1 receptor (hCHRM1) (Homo sapiens, UniProt P11229)", 100],
  ["Cc1cc(-c2ccc(CN3Cc4ncnc(Oc5ccc(C(F)(F)F)cc5F)c4C3=O)cc2)cnn1", "human M1 receptor (hCHRM1) (Homo sapiens, UniProt P11229)", 100],
  ["Cn1ccc(-c2ccc(CN3Cc4ccnc(OCC5CCCO5)c4C3=O)c(F)c2)n1 (centres unmarked)", "human M1 receptor (hCHRM1) (Homo sapiens, UniProt P11229)", 113],
  ["Cn1cc(-c2coc(CN3Cc4cccc(Oc5c(F)cccc5C#N)c4C3=O)c2)cn1", "human M1 receptor (hCHRM1) (Homo sapiens, UniProt P11229)", 103],
  ["Cn1cc(-c2ccc(CN3Cc4ccnc(OCC5CCCO5)c4C3=O)cc2)cn1 (centres unmarked)", "human M1 receptor (hCHRM1) (Homo sapiens, UniProt P11229)", 95],
  ["Cc1cc(F)c(Oc2nccc3c2C(=O)N(Cc2ccc(-n4cnc(C)c4)cc2)C3)c(F)c1", "human M1 receptor (hCHRM1) (Homo sapiens, UniProt P11229)", 106],
  ["Cn1cc(-c2ccc(CN3Cc4cccc(Oc5c(F)cc([N+](=O)[O-])cc5Cl)c4C3=O)cc2)cn1", "human M1 receptor (hCHRM1) (Homo sapiens, UniProt P11229)", 103]
]}

###

Molecular target: human M1 receptor (hCHRM1) (Homo sapiens, UniProt P11229)
Construct: expressed in transfected cells; host or cells: CHO-K1
Sequence (P11229 1-460): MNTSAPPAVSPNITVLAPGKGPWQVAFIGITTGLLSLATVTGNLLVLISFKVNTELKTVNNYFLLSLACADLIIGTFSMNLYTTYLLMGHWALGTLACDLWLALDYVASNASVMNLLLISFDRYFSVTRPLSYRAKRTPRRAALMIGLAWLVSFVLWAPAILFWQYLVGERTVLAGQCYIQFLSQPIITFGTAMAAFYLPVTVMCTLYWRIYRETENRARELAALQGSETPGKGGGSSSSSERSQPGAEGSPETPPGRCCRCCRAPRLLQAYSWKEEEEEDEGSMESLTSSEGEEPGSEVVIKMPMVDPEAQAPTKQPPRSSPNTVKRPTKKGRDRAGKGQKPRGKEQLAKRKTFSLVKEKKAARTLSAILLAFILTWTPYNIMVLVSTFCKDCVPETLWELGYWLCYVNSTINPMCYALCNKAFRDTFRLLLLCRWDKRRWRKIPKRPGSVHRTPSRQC
Test: Measurement of M1 receptor positive allosteric modulator (M1PAM) activity, calcium fluorescence (FLIPRtetra) in CHO-K1 cells in the presence of acetylcholine at EC20
Type: cell-based
Conditions: test compound 10 μM, in the presence of acetylcholine at EC20 (final 0.6 nM), CHO-K1 cells expressing hCHRM1
observation type: activity (%) at 10 μM

{"columns": ["compound", "activity (%) at 10 μM"],
 "data": [
  ["NC(=O)c1ccc(CN2Cc3cccc(O[C@H]4CCCC[C@@H]4O)c3C2=O)cc1 (relative stereo) [Example 34]", 92],
  ["NC(=O)c1ccc(CN2Cc3ccnc(Oc4ccc(CC(F)(F)F)cc4F)c3C2=O)cc1 [Example 458]", 93],
  ["Cc1n[nH]c(C)c1Oc1cccc2c1C(=O)N(Cc1ccc(-c3cnn(C)c3)cc1)C2 [Example 22]", 103],
  ["Cl.N#Cc1cccc(F)c1Oc1cccc2c1C(=O)N(Cc1ccc(-c3ccn[nH]3)cc1)C2 [Example 42]", 107],
  ["Cn1cc(-c2ccc(CN3Cc4cccc(OCCO)c4C3=O)cc2)cn1 [Example 17]", 118],
  ["Cn1cnc(-c2ccc(CN3Cc4ccnc(Oc5ccc(C(F)(F)F)cc5F)c4C3=O)cc2)c1 [Example 419]", 102],
  ["NC(=O)c1ccc(CN2Cc3ccnc(Oc4ccc(C5CC5)cc4F)c3C2=O)cc1F [Example 446]", 107],
  ["CCn1cc(-c2ccc(CN3Cc4ncnc(OC5CCC5)c4C3=O)cc2)cn1 [Example 324]", 99]
]}
